Target: HLA-A*02:06
Assay: IEDB peptide-MHC binding, purified MHC/competitive/radioactivity; filed as Kd, often an IC50 or EC50 that approximates it; bounds were set here for any values at or beyond the usual limits of such assays
Details: source organism: Lassa virus GA391
parameter: Kd (nM)
Kindly answer with a numeric value in nM, unit omitted.

Query: Kd; subject: "ILAADLEKL"
195

###

Molecular target: HLA-B*44:02
Assay: IEDB peptide-MHC binding, purified MHC/direct/fluorescence; filed as Kd, often an IC50 or EC50 that approximates it; bounds were set here for any values at or beyond the usual limits of such assays
Conditions: source organism: Yellow fever virus
parameter: Kd

I am curious: what Kd value has been reported for "PHAATIRVL" ?
≥ 20 µM

###

Target: HLA-B*51:01
Assay: IEDB peptide-MHC binding, purified MHC/competitive/radioactivity; filed as Kd, often an IC50 or EC50 that approximates it; bounds were set here for any values at or beyond the usual limits of such assays
Settings: source organism: Dengue virus 2 Peru/IQT2913/1996
parameter: pKd
// pKd is dimensionless: -log10 of concentration (M)

Param item = "IPTVMAFHL" ; retrieve measured pKd.
5.26

###

Target: HLA-B*44:03
Test: IEDB peptide-MHC binding, purified MHC/competitive/radioactivity; filed as Kd, often an IC50 or EC50 that approximates it; bounds were set here for any values at or beyond the usual limits of such assays
Details: source organism: Dengue virus 2 16681-PDK53
parameter: pKd
The scale used: pKd is minus the common logarithm of the concentration in molar units.

Which pKd reading was recorded for the sequence "MENKAWLVH" ?
6.77

###

Biological target: HLA-B*27:03
Assay: IEDB peptide-MHC binding, purified MHC/competitive/fluorescence; filed as Kd, often an IC50 or EC50 that approximates it; bounds were set here for any values at or beyond the usual limits of such assays
Details: source organism: Yersinia pestis Nepal516
parameter: Kd

Name the recorded Kd for "LELIGNAES" .
≥ 20 µM

###

Biological target: HLA-A*69:01
Assay: IEDB peptide-MHC binding, purified MHC/competitive/fluorescence; filed as Kd, often an IC50 or EC50 that approximates it; bounds were set here for any values at or beyond the usual limits of such assays
Conditions: source organism: Reston ebolavirus
parameter: Kd

Kd lookup needed for "TTDDSTSYY" , thanks.
≥ 20 µM

###

Molecular target: HLA-B*44:03
Experiment: IEDB peptide-MHC binding, purified MHC/competitive/radioactivity; filed as Kd, often an IC50 or EC50 that approximates it; bounds were set here for any values at or beyond the usual limits of such assays
Details: source organism: SARS coronavirus Tor2
Threshold 200 nM: Kd strictly smaller gives y, otherwise n.

The following sequences have reported results that may help.
residue_sequence | assay_system | class_name
QELYSPLFL | HLA-B*44:03 | n
REVSTAAVT | HLA-B*44:03 | n
DEFIQRYKL | HLA-B*44:03 | n
VEAVMYMGTL | HLA-B*44:03 | n
FEIKSAKKF | HLA-B*44:03 | y

Hi there! Is Kd for "EEAALCTFL" below 200 nM, do you know?
y

###

Target: HLA-B*07:02
Test: IEDB peptide-MHC binding, purified MHC/competitive/radioactivity; filed as Kd, often an IC50 or EC50 that approximates it; bounds were set here for any values at or beyond the usual limits of such assays
Conditions: source organism: Dengue virus 1 Brazil/97-11/1997
parameter: pKd
pKd here: minus log base 10 of the concentration, concentration in moles per litre.

Request: pKd, test system HLA-B*07:02, entry "VPSIKSGNDI"
5.86

###

Target: HLA-B*39:01
Test: IEDB peptide-MHC binding, purified MHC/competitive/fluorescence; filed as Kd, often an IC50 or EC50 that approximates it; bounds were set here for any values at or beyond the usual limits of such assays
Settings: source organism: Escherichia coli 536
parameter: pKd
Would you please state pKd, meaning minus log10 of the concentration in mol/L, as a bare number?

Which pKd value belongs to "EEQQSMLAL" ?
7.57

###

Target: HLA-A*31:01
Assay: IEDB peptide-MHC binding, purified MHC/competitive/fluorescence; bounds were set here for any values at or beyond the usual limits of such assays
Conditions: source organism: Ateles geoffroyi
parameter: IC50

Would you kindly share the measured IC50 for "LPADPASVL" ?
≥ 20 µM

###

Biological target: HLA-B*08:02
Assay: IEDB peptide-MHC binding, purified MHC/direct/fluorescence; filed as Kd, often an IC50 or EC50 that approximates it; bounds were set here for any values at or beyond the usual limits of such assays
Settings: source organism: Influenza A virus(A/swine/Shandong/fZC/2003(H9N2))
pKd: −log10 of the molar value.
parameter: pKd

Requested field: pKd. Item: "KAVRGDLNF"
≤ 4.70

###

Target: HLA-A*24:02
Assay: IEDB peptide-MHC binding, purified MHC/competitive/radioactivity; filed as Kd, often an IC50 or EC50 that approximates it; bounds were set here for any values at or beyond the usual limits of such assays
Conditions: source organism: Vaccinia virus WR
pKd: −log10 of the molar value.
parameter: pKd

Field request: pKd | item: "QSDTVFDYY"
≤ 4.14

###

Target: HLA-A*24:02
Test: IEDB peptide-MHC binding, purified MHC/direct/fluorescence; filed as Kd, often an IC50 or EC50 that approximates it; bounds were set here for any values at or beyond the usual limits of such assays
Conditions: source organism: Amur virus
parameter: Kd
Answer as a quantity: numeral, then unit.

May I ask what Kd has been recorded for "QYEKDPDEL" ?
4.65 µM

###

Molecular target: HLA-B*46:01
Experiment: IEDB peptide-MHC binding, purified MHC/direct/fluorescence; filed as Kd, often an IC50 or EC50 that approximates it; bounds were set here for any values at or beyond the usual limits of such assays
Settings: source organism: Neogale vison
parameter: pKd
Bear in mind: pKd is minus log10 of a mol/L concentration; give just that figure.

Reported pKd for "KMKEIAEAY" : what is it?
6.35

###

Biological target: HLA-C*05:01
Assay: IEDB peptide-MHC binding, purified MHC/direct/fluorescence; filed as Kd, often an IC50 or EC50 that approximates it; bounds were set here for any values at or beyond the usual limits of such assays
Conditions: source organism: Yersinia pestis Nepal516
pKd: −log10 of the molar value.
parameter: pKd

If you can, please state the reported pKd value of "YVIKKSSPL" .
≤ 4.70

###

Biological target: HLA-A*26:01
Assay: IEDB peptide-MHC binding, purified MHC/competitive/fluorescence; filed as Kd, often an IC50 or EC50 that approximates it; bounds were set here for any values at or beyond the usual limits of such assays
Settings: source organism: Influenza A virus (A/Wellington/22/2001(H3N2))
parameter: Kd (nM)
The figure you give is taken to be in nM; do not add the unit.

Please give the measured Kd for this sequence: "ETIVLLRAF"
27.6

###

Target: HLA-B*48:01
Assay: IEDB peptide-MHC binding, purified MHC/direct/fluorescence; filed as Kd, often an IC50 or EC50 that approximates it; bounds were set here for any values at or beyond the usual limits of such assays
Settings: source organism: Vibrio vulnificus
pKd: −log10 of the molar value.
parameter: pKd

For the sequence "VTFFCVMTY" , what pKd is on record?
≤ 4.70

###

Biological target: HLA-A*03:01
Assay: IEDB peptide-MHC binding, purified MHC/competitive/radioactivity; filed as Kd, often an IC50 or EC50 that approximates it; bounds were set here for any values at or beyond the usual limits of such assays
Settings: source organism: Dengue virus 2 Peru/IQT2913/1996
parameter: Kd (nM)
Reply numerically in nM, unit not repeated.

Query (sequence): "VMAFHLTTR" ; field requested: Kd
51.7

###

Biological target: HLA-A*02:01
Assay: IEDB peptide-MHC binding, purified MHC/direct/fluorescence; filed as Kd, often an IC50 or EC50 that approximates it; bounds were set here for any values at or beyond the usual limits of such assays
Conditions: source organism: Salmonella enterica subsp. enterica serovar Paratyphi A
parameter: pKd
pKd (log units): -log10 of the concentration in mol/L.

# get_value(readout='pKd', item= "AQLPRWVAT" )
4.70

###

Target: HLA-B*27:05
Assay: IEDB peptide-MHC binding, purified MHC/direct/fluorescence; filed as Kd, often an IC50 or EC50 that approximates it; bounds were set here for any values at or beyond the usual limits of such assays
Conditions: source organism: Influenza A virus (A/equine/New York/1/1999(H3N8))
parameter: Kd

Kd lookup needed for "RELVRKTRF" , thanks.
≥ 20 µM

###

Biological target: HLA-A*69:01
Assay: IEDB peptide-MHC binding, purified MHC/direct/fluorescence; filed as Kd, often an IC50 or EC50 that approximates it; bounds were set here for any values at or beyond the usual limits of such assays
Settings: source organism: SARS-CoV1
Item-by-item account of Kd
Return type: number; implicit unit nM.

residue_sequence | val
TTLPVNVAF | 20

Give its Kd value. Item: "GLMWLSYFV"
347
